target: 15-PGDH/HPGD (Homo sapiens (Human), UniProt P15428); assay: hPGDH inhibitor screening biochemical assay; conditions: 10 nM 15-PGDH/HPGD, 15 μM PGE2, 0.25 mM NAD; read-out: hPGDH: Average IC50
Sequence (P15428 whole entry): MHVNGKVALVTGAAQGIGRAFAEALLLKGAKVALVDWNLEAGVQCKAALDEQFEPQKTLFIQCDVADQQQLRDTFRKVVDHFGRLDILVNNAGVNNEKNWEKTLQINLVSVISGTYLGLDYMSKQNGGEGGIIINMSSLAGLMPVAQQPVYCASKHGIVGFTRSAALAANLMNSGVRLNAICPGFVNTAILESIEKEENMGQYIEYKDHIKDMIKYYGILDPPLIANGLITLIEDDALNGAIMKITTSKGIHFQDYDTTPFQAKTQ
pIC50: −log10 of the molar value.
For each record, write down the corresponding pIC50.

The examples below pair each entry with its known result.
Challenge: Need pIC50, item CNC(=O)c1cncc(-n2ccc3cc(C(=O)N4CCCCC4)cnc32)c1
Response given: > 7.00

Challenge: Another: O=C(c1ccc(COc2ccccc2Br)cc1)N1CCCCC1
Response given: > 7.00

Challenge: Would you mind doing COc1ccc(-n2cnc3cc(C(=O)N4CCC(F)CC4)cnc32)cc1 as well?
Response given: > 7.00

Challenge: What do you get for O=C(c1ccc2c(c1)ncn2-c1cccc(Cl)c1)N1CC2(CCC2)C1 ?
Response given: > 7.00

Challenge: Try this molecule too: CC(C)(C#N)c1cncc(-n2ccc3cc(C(=O)N4CCC(F)(F)CC4)cnc32)c1
Response given: > 7.00

Challenge: Again, but for C[C@H]1CCCN(C(=O)c2cnc3c(ccn3-c3ccc(C(=O)O)cc3)c2)C1
Response given: > 7.00

Each molecule below has a reported value. Please supply its pIC50.
1. CC1(C)NC(=O)N(c2ccc(-n3ccc4cc(C(=O)N5CCC(F)(F)CC5)cnc43)cn2)C1=O
2. COc1ccc(-n2ccc3cc(C(=O)N4CCC(F)CC4)cnc32)cc1
3. NCCNC(=O)c1ccc(-n2ccc3cc(C(=O)N4CCC(F)(F)CC4)cnc32)cc1

Response given:
1: > 7.00; 2: > 7.00; 3: > 7.00
